Source: ChEMBL document CHEMBL3596195

experiment_description: Selectivity index, ratio of IC50 for mouse RAW264.7 cells to MIC for Staphylococcus aureus ATCC25923
Assay type: toxicity
condition_context: read-out: Selectivity Index
selectivity ratio overview
Respond numerically, and do not add a unit to the figure.

[
  {
    "entry_smiles": "COc1cc(/C=C/c2ccc(F)cc2F)c(C(=O)O)c(O)c1CC=C(C)C",
    "readout_value": 46.5
  },
  {
    "entry_smiles": "COc1cc(/C=C/c2ccc(C(F)(F)F)cc2)c(C(=O)O)c(O)c1CC=C(C)C",
    "readout_value": 12.9
  },
  {
    "entry_smiles": "COc1cc(/C=C/c2cccc(F)c2)c(C(=O)O)c(O)c1CC=C(C)C",
    "readout_value": 5.04
  }
]

Exercise: Requested read-out: selectivity ratio. Entry: COc1cc(/C=C/c2ccccc2F)c(C(=O)O)c(O)c1CC=C(C)C
Key: 6.17

* * *

MIC overview
Tested on: Staphylococcus epidermidis
experiment_description: Antibacterial activity against Staphylococcus epidermidis ATCC12228 assessed as bacterial growth inhibition after 24 hrs by broth dilution method
Format: functional
condition_context: ATCC12228, 24 h

[
  {
    "entry_smiles": "COC(=O)c1c(/C=C/c2ccccc2)cc(OC)c(CC=C(C)C)c1O",
    "test_system": "Staphylococcus epidermidis",
    "MIC": "> 128 µg/mL"
  },
  {
    "entry_smiles": "COC(=O)c1c(O)cc(OC)cc1/C=C/c1ccc(OC)cc1",
    "test_system": "Staphylococcus epidermidis",
    "MIC": "> 128 µg/mL"
  }
]

Please turn your attention to the following entry.
Exercise: Observed MIC on Staphylococcus epidermidis for COC(=O)c1c(O)cc(OC)cc1/C=C/c1ccc(Cl)cc1 , please.
Key: > 128 µg/mL

* * *

System: Staphylococcus epidermidis
experiment_description: Antibacterial activity against Staphylococcus epidermidis ATCC12228 assessed as bacterial growth inhibition after 24 hrs by broth dilution method
Type: functional
condition_context: ATCC12228, 24 h
experimental_endpoint: log10(MIC) (log10 of the value in µg/mL)
Recorded MIC (log10, µg/mL)

[
  {
    "entry_smiles": "COc1cc(/C=C/c2ccc(F)cc2)c(C(=O)O)c(O)c1CC=C(C)C",
    "log10(MIC)": 0.60
  }
]

Exercise: Requested read-out: log10(MIC). Entry: COc1cc(/C=C/c2ccccc2)c(C(=O)O)c(O)c1CC=C(C)C
Key: 1.20

Exercise: Requested read-out: log10(MIC). Entry: COC(=O)c1c(/C=C/c2ccc(C(F)(F)F)cc2)cc(OC)c(CC=C(C)C)c1O
Key: 1.81

Exercise: Requested read-out: log10(MIC). Entry: COc1cc(/C=C/c2ccc(C)cc2)c(C(=O)O)c(O)c1CC=C(C)C
Key: 1.51

Exercise: Requested read-out: log10(MIC). Entry: CCn1cc(C(=O)O)c(=O)c2cc(F)c(N3CCNCC3)cc21
Key: 0.30

Exercise: Requested read-out: log10(MIC). Entry: COC(=O)c1c(O)cc(OC)cc1/C=C/c1ccc(C(F)(F)F)cc1
Key: 2.11

Exercise: Requested read-out: log10(MIC). Entry: COc1cc(/C=C/c2cccc(F)c2)c(C(=O)O)c(O)c1CC=C(C)C
Key: 0.30

Exercise: Requested read-out: log10(MIC). Entry: COC(=O)c1c(/C=C/c2cc(OC)c(OC)c(OC)c2)cc(OC)c(CC=C(C)C)c1O
Key: 1.81

* * *

Tested on: Staphylococcus epidermidis
experiment_description: Antibacterial activity against Staphylococcus epidermidis ATCC12228 assessed as bacterial growth inhibition after 24 hrs by broth dilution method
Assay type: functional
condition_context: ATCC12228, 24 h
MIC overview

[
  {
    "entry_smiles": "COc1cc(O)c(C(=O)O)c(/C=C/c2ccccc2)c1",
    "MIC": "> 128 µg/mL"
  }
]

Exercise: Requested read-out: MIC. Entry: COC(=O)c1c(/C=C/c2ccccc2F)cc(OC)c(CC=C(C)C)c1O
Key: > 128 µg/mL

* * *

MIC overview
System: Staphylococcus epidermidis
experiment_description: Antibacterial activity against Staphylococcus epidermidis ATCC12228 assessed as bacterial growth inhibition after 24 hrs by broth dilution method
Format: functional
condition_context: ATCC12228, 24 h
Quick reminder: number only, in µg/mL, skip the unit.

Before answering, review these 2 worked examples.
[
  {
    "entry_smiles": "COc1cc(C)c(C(=O)O)c(O)c1CC=C(C)C",
    "test_system": "Staphylococcus epidermidis",
    "MIC / µg/mL": 64
  },
  {
    "entry_smiles": "COC(=O)c1c(O)cc(OC)cc1/C=C/c1cccc(F)c1",
    "test_system": "Staphylococcus epidermidis",
    "MIC / µg/mL": 128
  }
]

Please turn your attention to the following entry.
Exercise: Requested read-out: MIC. Entry: COc1cc(/C=C/c2ccc(C(F)(F)F)cc2)c(C(=O)O)c(O)c1CC=C(C)C
Key: 2
